# target under test: ERα (Homo sapiens)
# Construct: host or cells: MCF-7
# method description: ER degradation activity in MCF-7 cells (Western blot, grayscale intensity)
# Type: cell-based
# measurement parameters: 6 hours treatment, 1 nM to 100 nM, concentration required to degrade 50% of the target protein
readout label: DC50

{"columns": ["compound", "result"],
 "data": [
  ["CC1(C)CC(=C(c2ccc(N3CCC(CN4CCN(c5ccc6c(c5)C(=O)N(C5CCC(=O)NC5=O)C6=O)CC4)CC3)nc2)c2ccc3[nH]nc(F)c3c2)CC(C)(C)O1 (stereo not shown)", "10 to 100 nM"],
  ["CC1(C)CC(=C(c2ccc(OC3CN(CC4CN(c5ccc6c(c5)C(=O)N(C5CCC(=O)NC5=O)C6=O)C4)C3)cc2)c2ccc3[nH]nc(F)c3c2)CC(C)(C)O1 (stereo not shown)", "> 100 nM"],
  ["CC1(C)CC(=C(c2ccc(N3CCN(C4CCN(c5ccc6c(c5)C(=O)N(C5CCC(=O)NC5=O)C6=O)CC4)CC3)nc2)c2ccc3[nH]nc(F)c3c2)CC(C)(C)O1 (stereo not shown)", "< 10 nM"],
  ["CC1(C)CC(=C(c2ccc(N3CCC4(CC3)CC(N3CCC(c5ccc6c(c5)CN(C5CCC(=O)NC5=O)C6=O)CC3)C4)nc2)c2ccc3[nH]nc(F)c3c2)CC(C)(C)O1 (stereo not shown)", "> 100 nM"],
  ["CC1(C)CC(=C(c2ccc(OCCN3CCN(c4ccc5c(c4)C(=O)N(C4CCC(=O)NC4=O)C5=O)CC3)nc2)c2ccc3[nH]nc(F)c3c2)CC(C)(C)O1 (stereo not shown)", "> 100 nM"],
  ["CC1(C)CC(=C(c2ccc(OC3CN(C4CCN(c5ccc6c(c5)C(=O)N(C5CCC(=O)NC5=O)C6=O)CC4)C3)nc2)c2ccc3[nH]nc(F)c3c2)CC(C)(C)O1 (stereo not shown)", "> 100 nM"],
  ["CC1(C)CC(=C(c2ccc(N3CCC(N4CCN(c5ccc6c(c5)CN([C@H]5CCC(=O)NC5=O)C6=O)CC4)CC3)cc2)c2ccc3[nH]nc(F)c3c2)CC(C)(C)O1", "10 to 100 nM"],
  ["CC1(C)CC(=C(c2ccc(N3CCC(CN4CCN(c5ccc(NC6CCC(=O)NC6=O)c(F)c5)CC4)CC3)nc2)c2ccc3[nH]nc(F)c3c2)CC(C)(C)O1 (stereo not shown)", "> 100 nM"],
  ["CC1(C)CC(=C(c2ccc(N3CCC(N4CCN(c5ccc6c(c5)C(=O)N(C5CCC(=O)NC5=O)C6=O)CC4)CC3)nc2)c2ccc3[nH]nc(F)c3c2)CC(C)(C)O1 (stereo not shown)", "> 100 nM"],
  ["CC1(C)CC(=C(c2ccc(N3CCC(F)(CNC4CCN(c5ccc6c(c5)CN([C@H]5CCC(=O)NC5=O)C6=O)CC4)CC3)nc2)c2ccc3[nH]nc(F)c3c2)CC(C)(C)O1", "10 to 100 nM"],
  ["CC1(C)CC(=C(c2ccc3[nH]nc(F)c3c2)c2c(F)cc(N3CC(N4CCN(c5ccc6c(c5)C(=O)N(C5CCC(=O)NC5=O)C6=O)CC4)C3)cc2F)CC(C)(C)O1 (stereo not shown)", "> 100 nM"],
  ["CC1(C)CC(=C(c2ccc(OC3CN(CC4CCN(c5ccc6c(c5)C(=O)N(C5CCC(=O)NC5=O)C6=O)CC4)C3)nc2)c2ccc3[nH]nc(F)c3c2)CC(C)(C)O1 (stereo not shown)", "10 to 100 nM"],
  ["CC1(C)CC(=C(c2ccc(N3CCN(C4CCN(c5ccc(N6CCC(=O)NC6=O)cc5)CC4)CC3)cc2)c2ccc3[nH]nc(F)c3c2)CC(C)(C)O1", "> 100 nM"],
  ["Cn1nc(N2CCC(=O)NC2=O)c2ccc(C3CCN(CC(=O)N4CCN(c5ccc(C(=C6CC(C)(C)OC(C)(C)C6)c6ccc7[nH]nc(F)c7c6)cn5)CC4)CC3(F)F)cc21 (stereo not shown)", "> 100 nM"],
  ["CC1(C)CC(=C(c2ccc(N3CCC(CN4CCN(c5ccc(F)c(NC6CCC(=O)NC6=O)c5)CC4)CC3)nc2)c2ccc3[nH]nc(F)c3c2)CC(C)(C)O1 (stereo not shown)", "< 10 nM"],
  ["Cn1nc(N2CCC(=O)NC2=O)c2cc(F)c(N3CCN(C4CC5(CCN(c6ccc(C(=C7CC(C)(C)OC(C)(C)C7)c7ccc8[nH]nc(F)c8c7)cn6)CC5)C4)CC3)cc21", "< 10 nM"],
  ["CC1(C)CC(=C(c2ccc(N3CC4(CCN(C(=O)CN5Cc6cc7c(cc6C5)C(=O)N(C5CCC(=O)NC5=O)C7)C4)C3)nc2)c2ccc3[nH]nc(F)c3c2)CC(C)(C)O1 (stereo not shown)", "> 100 nM"],
  ["CC1(C)CC(=C(c2ccc(N3CCC(CN4CCN(c5ccc6c(c5)CN(C5CCC(=O)NC5=O)C6=O)CC4)CC3)cc2)c2ccc3[nH]nc(F)c3c2)CC(C)(C)O1 (stereo not shown)", "10 to 100 nM"],
  ["CC1(C)CC(=C(c2ccc(N3CCN(C4CCN(c5ccc6c(c5)CN(C5CCC(=O)NC5=O)C6=O)CC4)CC3)nc2)c2ccc3[nH]nc(F)c3c2)CC(C)(C)O1 (stereo not shown)", "> 100 nM"]
]}

----------
# target under test: ERα (Homo sapiens, UniProt P03372)
# Construct: host or cells: MCF-7
# Sequence (P03372 whole entry): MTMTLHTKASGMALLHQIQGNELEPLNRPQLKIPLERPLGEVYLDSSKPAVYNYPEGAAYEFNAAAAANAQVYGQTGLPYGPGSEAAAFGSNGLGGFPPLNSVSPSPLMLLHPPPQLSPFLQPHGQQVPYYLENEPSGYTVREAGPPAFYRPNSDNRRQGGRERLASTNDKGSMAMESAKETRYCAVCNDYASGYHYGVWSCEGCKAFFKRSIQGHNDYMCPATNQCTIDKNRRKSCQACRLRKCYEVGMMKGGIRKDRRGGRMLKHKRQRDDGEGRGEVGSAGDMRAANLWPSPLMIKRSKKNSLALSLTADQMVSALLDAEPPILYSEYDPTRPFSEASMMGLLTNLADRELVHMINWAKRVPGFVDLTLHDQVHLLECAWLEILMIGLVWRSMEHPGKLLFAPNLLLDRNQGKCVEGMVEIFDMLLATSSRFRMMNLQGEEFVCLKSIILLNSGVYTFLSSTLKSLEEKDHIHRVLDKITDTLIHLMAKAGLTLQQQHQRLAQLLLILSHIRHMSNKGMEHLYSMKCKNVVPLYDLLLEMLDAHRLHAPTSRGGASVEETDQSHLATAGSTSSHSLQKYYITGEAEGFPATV
# method description: ER degradation activity in MCF-7 cells (Western blot, grayscale intensity)
# Format: cell-based
# measurement parameters: 6 hours treatment, 1 nM to 100 nM, concentration required to degrade 50% of the target protein
Listed here: items and their measured DC50.
readout label: DC50

{"columns": ["compound", "target under test", "result"],
 "data": [
  ["CC1(C)CC(=C(c2ccc(N3CCC4(CC3)CC(N3CCN(c5ccc(C(=O)N[C@H]6CCC(=O)NC6=O)nc5)CC3)C4)nc2)c2ccc3[nH]nc(F)c3c2)CC(C)(C)O1", "ERα (Homo sapiens, UniProt P03372)", "10 to 100 nM"],
  ["CC1(C)CC(=C(c2ccc(N3CC(CN4CCN(c5ccc6c(c5)C(=O)N(C5CCC(=O)NC5=O)C6=O)CC4)C3)cc2)c2ccc3[nH]nc(F)c3c2)CC(C)(C)O1 (centres unmarked)", "ERα (Homo sapiens, UniProt P03372)", "> 100 nM"],
  ["CC1(C)CC(=C(c2ccc(OC3CN(C4CCN(c5ccc6c(c5)C(=O)N(C5CCC(=O)NC5=O)C6=O)CC4)C3)cc2)c2ccc3[nH]nc(F)c3c2)CC(C)(C)O1 (centres unmarked)", "ERα (Homo sapiens, UniProt P03372)", "> 100 nM"],
  ["CC1(C)CC(=C(c2ccc(OC3CN(CC4CCN(c5ccc6c(c5)C(=O)N(C5CCC(=O)NC5=O)C6=O)CC4)C3)cc2)c2ccc3[nH]nc(F)c3c2)CC(C)(C)O1 (centres unmarked)", "ERα (Homo sapiens, UniProt P03372)", "> 100 nM"],
  ["CC1(C)CC(=C(c2ccc(N3CCC4(CC3)CC(N3CCN(c5ccc6c(c5)CN(C5CCC(=O)NC5=O)C6=O)CC3)C4)cc2)c2ccc3[nH]nc(F)c3c2)CC(C)(C)O1 (centres unmarked)", "ERα (Homo sapiens, UniProt P03372)", "> 100 nM"],
  ["CC1(C)CC(=C(c2ccc(N3CCC4(CC3)CC(N3CCN(c5ccc6c(c5)CN([C@H]5CCC(=O)NC5=O)C6=O)CC3)C4)nc2)c2ccc3[nH]nc(F)c3c2)CC(C)(C)O1", "ERα (Homo sapiens, UniProt P03372)", "< 10 nM"],
  ["CC1(C)CC(=C(c2ccc(N3CCN(C4CN(c5ccc(N6CCC(=O)NC6=O)cc5)C4)CC3)cc2)c2ccc3[nH]nc(F)c3c2)CC(C)(C)O1", "ERα (Homo sapiens, UniProt P03372)", "> 100 nM"],
  ["CC1(C)CC(=C(c2ccc(N3CC4(CN(C(=O)CN5CCC(c6ccc(NC7CCC(=O)NC7=O)cc6F)CC5)C4)C3)nc2)c2ccc3[nH]nc(F)c3c2)CC(C)(C)O1 (centres unmarked)", "ERα (Homo sapiens, UniProt P03372)", "> 100 nM"],
  ["CC1(C)CC(=C(c2ccc(N3CC4(CCN(C5CCN(c6ccc7c(c6)CN(C6CCC(=O)NC6=O)C7=O)CC5)CC4)C3)nc2)c2ccc3[nH]nc(F)c3c2)CC(C)(C)O1 (centres unmarked)", "ERα (Homo sapiens, UniProt P03372)", "< 10 nM"],
  ["CC1(C)CC(=C(c2ccc(N3CCC4(CC3)CC(CN3CCN(c5ccc6c(c5)CN(C5CCC(=O)NC5=O)C6=O)CC3)C4)nc2)c2ccc3[nH]nc(F)c3c2)CC(C)(C)O1 (centres unmarked)", "ERα (Homo sapiens, UniProt P03372)", "> 100 nM"],
  ["CC1(C)CC(=C(c2ccc(OCCN3CCN(c4ccc5c(c4)C(=O)N(C4CCC(=O)NC4=O)C5=O)CC3)cc2)c2ccc3[nH]nc(F)c3c2)CC(C)(C)O1 (centres unmarked)", "ERα (Homo sapiens, UniProt P03372)", "> 100 nM"],
  ["CC1(C)CC(=C(c2ccc(N3CCC(N4CCN(c5ccc(NC6CCC(=O)NC6=O)cc5)CC4)CC3)cc2)c2ccc3[nH]nc(F)c3c2)CC(C)(C)O1 (centres unmarked)", "ERα (Homo sapiens, UniProt P03372)", "> 100 nM"],
  ["CC1(C)CC(=C(c2ccc(N3CCN(C4CCN(c5ccc(NC6CCC(=O)NC6=O)cc5)CC4)CC3)cc2)c2ccc3[nH]nc(F)c3c2)CC(C)(C)O1 (centres unmarked)", "ERα (Homo sapiens, UniProt P03372)", "> 100 nM"],
  ["CC1(C)CC(=C(c2ccc(N3CC(N4CCN(c5ccc6c(c5)C(=O)N(C5CCC(=O)NC5=O)C6=O)CC4)C3)cc2)c2ccc3[nH]nc(F)c3c2)CC(C)(C)O1 (centres unmarked)", "ERα (Homo sapiens, UniProt P03372)", "> 100 nM"]
]}

# credit: patent EP4722209A1
